From: the RNAGym collection of RNA variant scans (doi:10.1002/anie.201605470)

B1: Osa-1-4 twister ribozyme (parent)
chain: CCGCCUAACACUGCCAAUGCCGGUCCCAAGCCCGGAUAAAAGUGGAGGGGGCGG

Variants of: B1
Test: self-cleavage, relative activity (ratio to wild type); higher = more cleavage; co-transcriptional
// reported self-cleavage per item
Kindly provide the number alone.

Here's what some known entries look like.
mutant_designation	self-cleavage
G42C G48C	0.07
A41U C11G	0.45
A38U G54U	0.95

Prompt line: Which self-cleavage value is on record for G13C U18C ?
Response line: 0.04

Prompt line: Tell me the measured self-cleavage of G47U G51U , please.
Response line: 0.08

Prompt line: Entry under review: A38G C26A . Reported self-cleavage?
Response line: 0.06

Prompt line: What does the data say about its self-cleavage? Entry: A36G C20G
Response line: 0.12

Prompt line: Please look up its self-cleavage: C25G G30C
Response line: 0.02
